experiment: soluble on expression in E. coli; label from the status in PepcDB or PDB records
assay_metric: soluble on expression in E. coli

Look over these answered cases.
sequence_content	assay_metric	test_result
EGLPVLAPVTKDTATSLYTIPFHDGASLVLDVAGLLVWSTCEGGQSPAEIACSSPTCLLANAYPAPGCPAPSCGSDRHDKPCTAYPSNPVTGACAAGSLFHTRFAANTTDGNKPVSEVNVRVLAACAPSKLLASLPRGSTGVAGLAGSGLALPSQVASAQKVPNKFLLCLPTGGPGVAIFGGGPLPWPQFTQSMDYTPLVAKGGSPAHYISARSIKVENTRVPISERALATGGVMLSTRLPYVLLRRDVYRPLVDAFTKALAAQPANGAPVARAVKPVAPFELCYDTKTLGNNPGGYWVPNVLLELDGGSDWAMTGKNSMVDVKPGTACVAFVEMKGVDAGDGSAPAVILGGAQMEDFVLDFDMEKKRLGFLRLPHFTGCSSFNFARST	soluble on expression in E. coli	soluble
MKILAFETSTEACSVALHVDGAVRERFELAPRRHAELALPWAEQLLAEAGISRRQLDAIAVGRGPGAFSGVRLAIGIVQGIALALDLPVLAISTLQVLALRAPAEASHVLACIDARMGEVYAGLFERQGEALLTLGSEVVCAPEAVLLPQSTPQWAGVGTGLAAGEMPLQQRFAGRLSSVDAAALPHAADLLTLALPAALRGEGVAPERVEPAYLRDNVALTLVEQQAARAAKAAAVPRLEHHHHHH	soluble on expression in E. coli	not soluble
MNYQVLLYYKYTTIDDPEQFAQDHLAFCKAHHLKGRILVSTEGINGTLSGTKEETEQYMAHMHADERFKDMVFKIDEAEGHAFKKMHVRPRKEIVALDLEDDVDPRHTTGQYLSPVEFRKALEDDDTVIIDARNDYEFDLGHFRGAIRPDITRFRDLPDWIKENKALFTDKKVVTYCTGGIRCEKFSGWLLKEGFEDVAQLHGGIATYGKDPETKGQYWDGKMYVFDDRISVDINQVEKTIIGKDWFDGKPCERYINCANPECNKQILVSEENETKYLGACSYECAKHERNRYVQANNISDNEWQQRLTNFDDLHQHALEHHHHHH	soluble on expression in E. coli	soluble
MGSDKIHHHHHHMIIVAGTPGAGKTSVMTHTIKQLLNKGNKPAVVKIDCLYTDDDTRYGKLKIPTLVGLSKDMCPDHFAIYNLEEMAEWAEKEGVDTLIIETAGLCHRCAPYTKNSLGICVIDATSGPNTPRKVGPFLTSADVVAITKGDIISQAEREVFRERVLEMNPKCTIYDVNGLSGQGCAEISEEIMEAKDIVDLENEELRHNAPLCVCTLCVGETKVAKKHHRGVLRRIDGFTKYVGE	soluble on expression in E. coli	not soluble
QKIEKQYDADLEQILIQWITTQCRKDVGRPQPGRENFQNWLKDGTVLCELINALYPEGQAPVKKIQASTMAFKQMEQISQFLQAAERYGINTTDIFQTVDLWEGKNMACVQRTLMNLGGLAVARDDGLFSGDPNWFPKKSKE	soluble on expression in E. coli	soluble

Turning now to a further sequence:
Please give the measured soluble on expression in E. coli for this sequence: `SGRFSIKAKNYFLTYPKCDLTKENALSQITNLQTPTNKLFIKICRELHENGEPHLHILIQFEGKYNCTNQRFFDLVSPTRSAHFHPNIQGAKSSSDVKSYIDKDGDVLEWGTFQIDGR`
soluble
